- method_notes: Metabolic stability in Sprague-Dawley rat plasma assessed as drug recovery at 3.2 ug/ml by RP-HPLC
- Assay type: ADME, cell-free
- condition_parameters: read-out: Stability
assay_endpoint: remaining at 3.2 ug/ml (%)
// units = %; emit number, no label

O=C(/C=C/c1ccccc1Br)/C=C/c1ccccc1Br = 97.1
COc1cc(/C=C/C(=O)/C=C/c2ccc(O)c(OC)c2)ccc1O = 97.6

Here is the next item to consider.
Consider the compound shown here: `COc1cc(/C=C/C(=O)CC(=O)/C=C/c2ccc(O)c(OC)c2)ccc1O` What is its recorded remaining at 3.2 ug/ml?
98.7

###

- method_notes: Chemical stability assessed as compound degradation in 0.1 M phosphate buffer at pH 7.2 within 30 mins
- Format: physicochemical
- condition_parameters: read-out: Activity
assay_endpoint: degraded at 0.5 h (%)
Expressed in %, but write only the number.

Reported degraded at 0.5 h for COc1cc(/C=C/C(=O)CC(=O)/C=C/c2ccc(O)c(OC)c2)ccc1O [CURCUMIN] : what is it?
92

###

- method_notes: Drug level in bile of patient with cancer at 3.6 g/day by HPLC
- Format: ADME, tissue-based
- condition_parameters: human, in vivo; read-out: Drug uptake
assay_endpoint: concentration

Need concentration, item COc1cc(/C=C/C(=O)CC(=O)/C=C/c2ccc(O)c(OC)c2)ccc1O [CURCUMIN]
1300 nM

###

- method_notes: Mean residence time (0 to infinity) in healthy Sprague-Dawley rat at 500 mg/kg, po administered as single dose
- Type: ADME, organism-based
- Parameters: dose 500 mg/kg, route oral
- condition_parameters: in vivo
assay_endpoint: MRT inf (h)
Express your answer in h, writing the number without its unit.

COc1cc(/C=C/C(=O)CC(=O)/C=C/c2ccc(O)c(OC)c2)ccc1O = 22.7
O=C(/C=C/c1ccccc1Br)/C=C/c1ccccc1Br = 4.16

Next up:
MRT inf for `COc1cc(/C=C/C(=O)/C=C/c2ccc(O)c(OC)c2)ccc1O` ?
8.48

###

- method_notes: Mean residence time (0 to t) in healthy Sprague-Dawley rat at 500 mg/kg, po administered as single dose
- Format: ADME, organism-based
- Design: dose 500 mg/kg, route oral
- condition_parameters: in vivo
# MRT last listing for each entry below
Lab book: enter the figure in h, no units written.

COc1cc(/C=C/C(=O)CC(=O)/C=C/c2ccc(O)c(OC)c2)ccc1O = 3.44
COc1cc(/C=C/C(=O)/C=C/c2ccc(O)c(OC)c2)ccc1O = 2.96

We now examine a further compound.
Field request: MRT last | item: `O=C(/C=C/c1ccccc1Br)/C=C/c1ccccc1Br`
2.49
